B1: Nuclear receptor subfamily 1 group D member 2, residues 103 to 171; numbered along this chain, Q14995 (parent)
chain: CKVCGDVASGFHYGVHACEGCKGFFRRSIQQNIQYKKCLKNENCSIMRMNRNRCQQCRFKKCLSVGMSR

Variants of: B1
ASSAY PROTOCOL: abundance fitness (aPCA) (normalised: wild type 0, dead -1); higher = more abundant; growth selection in yeast, the domain comes from the species named
CONDITION SET: Homo sapiens
Would you please tag the item Y when its abundance fitness is -0.4 or above, and N when it is below?

MUTANT LABEL | GROUP
K37L | N
R51W | Y
N32E | Y
M67S | N
C57M | N
Q30T | Y
Q31W | N
R58K | N
I46W | N
S64E | Y
M67K | N
N41C | N
C38T | N
R53D | Y
R69G | Y
C38P | N
R69W | Y
G66M | N
Q31M | Y
R58W | Y
R53N | Y
C38A | N
N52R | N
K60W | Y
K37T | Y
N50R | Y
K40F | Y
Q55S | Y
R27T | Y
R51V | Y
S64M | Y
C38W | N
S68H | Y
K37D | Y
S64Y | N
R58A | Y
C57L | N
C62M | Y
I33S | N
R27D | Y
Q55K | Y
V65A | Y
C54Y | N
R27V | Y
R51T | Y
I33F | Y

Origin of measurements: the Human Domainome abundance scans (Beltran et al. 2025)
